Target: human TRPA1 channel (Homo sapiens (Human))
Sequence (O75762 whole entry): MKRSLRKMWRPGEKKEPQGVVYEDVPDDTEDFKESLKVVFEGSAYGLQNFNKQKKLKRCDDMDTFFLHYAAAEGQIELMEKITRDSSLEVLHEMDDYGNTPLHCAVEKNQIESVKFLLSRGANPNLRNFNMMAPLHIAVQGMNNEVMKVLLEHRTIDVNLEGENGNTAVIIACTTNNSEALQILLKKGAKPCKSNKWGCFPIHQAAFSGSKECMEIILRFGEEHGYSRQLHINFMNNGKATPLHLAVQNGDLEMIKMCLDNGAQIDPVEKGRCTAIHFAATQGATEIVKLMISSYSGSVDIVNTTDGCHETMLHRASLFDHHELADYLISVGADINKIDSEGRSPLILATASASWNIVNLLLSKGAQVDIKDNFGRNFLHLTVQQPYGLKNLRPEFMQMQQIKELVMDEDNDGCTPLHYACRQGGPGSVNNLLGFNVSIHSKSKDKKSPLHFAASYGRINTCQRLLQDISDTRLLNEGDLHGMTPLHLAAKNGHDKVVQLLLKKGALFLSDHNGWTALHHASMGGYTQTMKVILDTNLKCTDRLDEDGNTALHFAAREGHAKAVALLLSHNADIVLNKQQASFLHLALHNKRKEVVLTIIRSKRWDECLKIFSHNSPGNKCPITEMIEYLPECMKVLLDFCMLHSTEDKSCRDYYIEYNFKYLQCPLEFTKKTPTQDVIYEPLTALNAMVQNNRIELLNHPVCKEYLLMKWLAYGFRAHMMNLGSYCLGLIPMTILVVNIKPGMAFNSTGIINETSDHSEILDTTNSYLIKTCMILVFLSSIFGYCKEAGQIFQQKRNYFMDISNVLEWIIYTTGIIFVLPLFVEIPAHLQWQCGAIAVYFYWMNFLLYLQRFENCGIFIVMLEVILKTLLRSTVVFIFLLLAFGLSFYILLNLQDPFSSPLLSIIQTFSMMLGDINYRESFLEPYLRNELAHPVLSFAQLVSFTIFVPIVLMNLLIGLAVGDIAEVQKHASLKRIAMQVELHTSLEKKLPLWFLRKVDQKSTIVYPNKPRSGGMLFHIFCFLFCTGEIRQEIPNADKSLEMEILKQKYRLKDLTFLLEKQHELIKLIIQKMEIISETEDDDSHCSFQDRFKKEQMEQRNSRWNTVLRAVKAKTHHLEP
Test: hTRPA1 CHO Ca2+ FLIPR Tetra assay: block of cinnamaldehyde induced calcium influx
Format: cell-based
Details: read-out: hTRPA1 IC50 90 min; CHO cells expressing TRPA1; 90 minutes incubation with compound before cinnamaldehyde (about EC80); Hill coefficient fixed to 1.5
pIC50: −log10 of the molar value.
attribute_measured: pIC50

Example entries and their recorded answers appear below.
| compound_string | pIC50 |
| --- | --- |
| Cn1nnc2ncn(Cc3nc([C@@H]4CO[C@@H](c5ccc(F)cc5)C4)no3)c(=O)c21 | 8.47 |
| Cn1cnc2ncn(Cc3nc([C@@H]4CO[C@@H](c5ccccc5)C4)no3)c(=O)c21 | 7.48 |
| Nc1ccc2c(=O)n(Cc3nc([C@@H]4CO[C@@H](c5ccc(Cl)cc5)C4)no3)cnc2n1 | 8.41 |
| Cn1cnc2ncn(Cc3nc([C@@H]4CO[C@@H](c5ccc(-c6ccccc6)cc5)C4)no3)c(=O)c21 | 6.43 |
| Cn1cnc2c(C(N)=O)nn(Cc3nc([C@@H]4CO[C@@H](c5ccc(Cl)cc5)C4)no3)c(=O)c21 | 7.41 |

a = Cc1ccc([C@H]2C[C@H](c3noc(Cn4cnc5ncn(C)c5c4=O)n3)CO2)cc1
b = Cc1nc(NC2CCN(C)CC2)n2ncn(Cc3nc([C@@H]4CO[C@@H](c5ccc(Cl)cc5)C4)no3)c(=O)c12
q: Between a and b , which one shows the smaller pIC50 number? Give the label of your selection.
a: b
(b: 6.82, a: 8.24)

Source of measurements: patent US10710994B2
